Target: T1, alpha subunit of the human FcεRI receptor expressed on Chinese hamster ovary cells (human, UniProt P12319 26-257)
T1 construct: whole, on cells; also called CHO FcεRI+ cells
T1 sequence (looked up): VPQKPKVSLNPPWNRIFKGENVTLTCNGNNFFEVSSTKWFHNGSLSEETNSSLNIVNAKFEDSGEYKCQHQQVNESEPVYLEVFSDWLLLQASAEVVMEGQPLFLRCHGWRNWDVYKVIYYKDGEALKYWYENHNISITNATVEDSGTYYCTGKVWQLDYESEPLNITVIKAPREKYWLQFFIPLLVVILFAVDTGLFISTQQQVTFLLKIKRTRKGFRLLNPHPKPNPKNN
Test: inhibition of 125I-IgE binding to CHO cells expressing human FcεRI alpha subunit
Bridges are numbered along the chain shown (N, C = ends). Where no end group is shown, it is not given here.
Field: pIC50. Provide a value for each of the binders that follow.
Keep it numeric: pIC50 is minus log10 of the concentration in mol/L.

Prompt: Any idea what its pIC50 is? The binder is Ac-NLPRCTEGPKGWVCMADD-NH2 (disulfide 5-14 (inferred), synthetic) [IGE032]
Response: 4.97

Prompt: Any idea what its pIC50 is? The binder is NLPRCTEGPWGWVCM (disulfide 5-14 (inferred), synthetic) [IGE062]
Response: 6.00

Prompt: Any idea what its pIC50 is? The binder is Ac-NLPRCAEGPWGWVCM (disulfide 5-14 (inferred), synthetic) [IGE208]
Response: 5.16
